# System: M14
# protocol: Growth inhibition of human M14 cells
# Format: functional
Please go through the items and note down their LC50 (concentration killing 50% of cells).

Request: Item under review: CC(C)C[C@H](NC(=O)CCn1ccc2ccc(Br)cc2c1=O)B(O)O . Reported LC50 (concentration killing 50% of cells)?
Response: > 100 µM

Request: And the next one, CC(C)C[C@H](NC(=O)Cn1ccc2ccc(Br)cc2c1=O)B(O)O ?
Response: > 100 µM

Request: How about CC(C)C[C@H](NC(=O)CCn1ccc2ccccc2c1=O)B(O)O ?
Response: > 100 µM

Request: CC(C)C[C@H](NC(=O)CCn1ccc2ncccc2c1=O)B(O)O ?
Response: 97.9 µM

====

# System: T47D
# protocol: Growth inhibition of human T47D cells
# Type: functional
measured_metric: GI50 (nM)
Field format: number, assumed nM, no unit text.

Request: Given CC(C)C[C@H](NC(=O)[C@H](Cc1ccccc1)NC(=O)c1cnccn1)B(O)O [BORTEZOMIB] , state its recorded GI50.
Response: 0.6

Request: Try the compound CC(C)C[C@H](NC(=O)CCn1ccc2ccc(Br)cc2c1=O)B(O)O
Response: 780

Request: Okay, and CC(C)C[C@H](NC(=O)CCn1ccc2ncccc2c1=O)B(O)O ?
Response: 4670

Request: Same again, this time with CC(C)C[C@H](NC(=O)Cn1ccc2ccc(Br)cc2c1=O)B(O)O
Response: 780

Request: Also, CC(C)C[C@H](NC(=O)CCn1ccc2ccccc2c1=O)B(O)O please.
Response: 3710

====

# System: ACHN
# protocol: Growth inhibition of human ACHN cells
# Assay type: functional
Exercise: for every item that follows, state its recorded GI50.
Your answer should be a plain number; it is taken to be in nM.

Request: Entry CC(C)C[C@H](NC(=O)CCn1ccc2ccc(Br)cc2c1=O)B(O)O : reported GI50 = ?
Response: 410

Request: Now consider CC(C)C[C@H](NC(=O)CCn1ccc2ccccc2c1=O)B(O)O and answer again.
Response: 1750

Request: Next record, please: CC(C)C[C@H](NC(=O)CCn1ccc2ncccc2c1=O)B(O)O
Response: 9150

Request: Thanks! And CC(C)C[C@H](NC(=O)[C@H](Cc1ccccc1)NC(=O)c1cnccn1)B(O)O ?
Response: 0.79

====

# Tested on: TK-10
# protocol: Growth inhibition of human TK10 cells
# Type: functional
Field: TGI. Provide a value for each of the molecules that follow.
Kindly provide the numeric value in µM only, without the unit symbol.

Request: Field request: TGI | item: CC(C)C[C@H](NC(=O)CCn1ccc2ccccc2c1=O)B(O)O
Response: 9.8

Request: Can you handle CC(C)C[C@H](NC(=O)CCn1ccc2ncccc2c1=O)B(O)O next?
Response: 47.7

Request: Continue with CC(C)C[C@H](NC(=O)CCn1ccc2ccc(Br)cc2c1=O)B(O)O
Response: 15.6

Request: Thanks! And CC(C)C[C@H](NC(=O)Cn1ccc2ccc(Br)cc2c1=O)B(O)O ?
Response: 7.22

====

Field: log10(GI50). Provide a value for each of the compounds that follow.
# System: SN12C
# protocol: Growth inhibition of human SN12C cells
# Format: functional
// stored as log10 of GI50 expressed in µM

Request: What value of log10(GI50) has been recorded for this entry: CC(C)C[C@H](NC(=O)CCn1ccc2ccccc2c1=O)B(O)O
Response: 1.05

Request: And then CC(C)C[C@H](NC(=O)CCn1ccc2ncccc2c1=O)B(O)O , what is it?
Response: 1.26

Request: And for CC(C)C[C@H](NC(=O)[C@H](Cc1ccccc1)NC(=O)c1cnccn1)B(O)O [BORTEZOMIB] ?
Response: -2.96

Request: Next: CC(C)C[C@H](NC(=O)Cn1ccc2ccc(Br)cc2c1=O)B(O)O
Response: 0.55

Request: Also need CC(C)C[C@H](NC(=O)CCn1ccc2ccc(Br)cc2c1=O)B(O)O , thanks.
Response: 0.18
